Value source: patent US20140323721A1

# tested.target: PI3K β (Homo sapiens)
# Sequence (P42338 whole entry): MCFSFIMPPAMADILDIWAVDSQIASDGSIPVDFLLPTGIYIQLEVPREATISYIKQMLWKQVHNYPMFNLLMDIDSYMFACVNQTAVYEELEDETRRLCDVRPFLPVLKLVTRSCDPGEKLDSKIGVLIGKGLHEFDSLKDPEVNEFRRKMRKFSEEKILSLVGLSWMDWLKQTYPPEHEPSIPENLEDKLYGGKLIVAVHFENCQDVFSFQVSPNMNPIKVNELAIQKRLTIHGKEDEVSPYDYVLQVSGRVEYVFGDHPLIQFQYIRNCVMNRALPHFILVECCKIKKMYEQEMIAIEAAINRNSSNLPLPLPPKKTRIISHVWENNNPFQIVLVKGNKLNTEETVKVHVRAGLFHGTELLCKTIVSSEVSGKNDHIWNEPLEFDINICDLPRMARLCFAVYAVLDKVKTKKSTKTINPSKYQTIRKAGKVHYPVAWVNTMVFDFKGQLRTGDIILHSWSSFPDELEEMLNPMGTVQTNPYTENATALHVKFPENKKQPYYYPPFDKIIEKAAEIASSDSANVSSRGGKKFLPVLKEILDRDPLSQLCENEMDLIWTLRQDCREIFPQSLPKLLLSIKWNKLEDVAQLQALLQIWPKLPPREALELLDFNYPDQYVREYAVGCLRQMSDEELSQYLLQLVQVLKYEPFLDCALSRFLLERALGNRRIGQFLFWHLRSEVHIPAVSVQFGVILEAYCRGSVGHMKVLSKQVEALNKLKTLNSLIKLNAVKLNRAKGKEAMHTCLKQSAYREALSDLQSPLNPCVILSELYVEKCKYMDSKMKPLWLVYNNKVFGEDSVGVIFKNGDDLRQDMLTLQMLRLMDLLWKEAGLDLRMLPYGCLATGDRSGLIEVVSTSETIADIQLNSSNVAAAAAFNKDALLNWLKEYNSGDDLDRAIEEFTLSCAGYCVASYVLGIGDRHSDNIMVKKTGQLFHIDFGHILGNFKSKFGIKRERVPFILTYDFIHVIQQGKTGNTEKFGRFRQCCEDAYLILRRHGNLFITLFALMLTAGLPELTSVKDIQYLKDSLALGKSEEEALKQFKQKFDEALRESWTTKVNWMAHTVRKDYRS
# Sequence (P27986 whole entry partner): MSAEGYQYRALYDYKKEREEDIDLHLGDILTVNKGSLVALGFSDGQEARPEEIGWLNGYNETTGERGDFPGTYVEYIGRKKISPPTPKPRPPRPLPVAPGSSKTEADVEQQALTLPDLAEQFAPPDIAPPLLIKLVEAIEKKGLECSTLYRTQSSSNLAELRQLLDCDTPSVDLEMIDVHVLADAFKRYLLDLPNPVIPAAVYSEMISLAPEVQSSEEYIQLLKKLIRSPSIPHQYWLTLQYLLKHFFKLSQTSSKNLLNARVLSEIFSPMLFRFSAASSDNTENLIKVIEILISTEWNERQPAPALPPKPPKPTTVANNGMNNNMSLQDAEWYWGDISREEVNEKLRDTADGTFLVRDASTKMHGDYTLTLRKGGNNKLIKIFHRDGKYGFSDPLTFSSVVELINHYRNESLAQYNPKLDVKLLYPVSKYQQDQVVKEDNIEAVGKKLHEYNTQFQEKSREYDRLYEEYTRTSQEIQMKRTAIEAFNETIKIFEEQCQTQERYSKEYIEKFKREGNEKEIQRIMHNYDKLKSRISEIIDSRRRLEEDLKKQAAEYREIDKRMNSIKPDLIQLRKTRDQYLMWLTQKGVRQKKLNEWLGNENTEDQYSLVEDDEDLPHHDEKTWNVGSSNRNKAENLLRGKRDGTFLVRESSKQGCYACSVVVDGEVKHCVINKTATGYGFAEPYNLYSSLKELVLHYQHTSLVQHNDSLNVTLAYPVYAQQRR
# assay.remarks: PI 3-Kinase HTRF inhibition assay, PI3K β
# Type: biochemical
pIC50: −log10 of the molar value.
measured.attribute: pIC50

## Task Answer with reported pIC50 of Nc1nc2cc(-c3cnc4ccc(N5C6CCC5COC6)nc4c3)ccc2o1
## Result < 5.00

====

Please go through the items and note down their pIC50.
# Tested on: MDA-MB-361
# assay.remarks: MDA-MB-361 proliferation
# Assay type: cell-based
# protocol.conditions: Homo sapiens; in vitro IC50, MDA-MB-361 cells
pIC50: −log10 of the molar value.

## Task Answer with reported pIC50 of C[C@@H](N)C(=O)N1CCN(c2cnc3ccc(-c4ccc5oc(N)nc5c4)nc3n2)CC1 [Compound 31]
## Result > 5.00

## Task Answer with reported pIC50 of CN1CC2CN(c3cnc4ccc(-c5ccc6oc(N)nc6c5)nc4n3)CC2C1 (stereo not shown) [Compound 78]
## Result > 5.00

## Task Answer with reported pIC50 of CC1(C)CN(C2CN(c3cnc4ccc(-c5ccc6oc(N)nc6c5)nc4c3)C2)CCN1 [Compound 58]
## Result > 6.00

## Task Answer with reported pIC50 of CCN1CCN(C2CN(c3cnc4ccc(-c5ccc6oc(N)nc6c5)nc4c3)C2)CC1 [Compound 75]
## Result > 6.00
